target: Lysine-specific demethylase 2A (Homo sapiens, UniProt Q9Y2K7); assay: Inhibition of KDM2A (unknown origin)
Sequence (Q9Y2K7 whole entry): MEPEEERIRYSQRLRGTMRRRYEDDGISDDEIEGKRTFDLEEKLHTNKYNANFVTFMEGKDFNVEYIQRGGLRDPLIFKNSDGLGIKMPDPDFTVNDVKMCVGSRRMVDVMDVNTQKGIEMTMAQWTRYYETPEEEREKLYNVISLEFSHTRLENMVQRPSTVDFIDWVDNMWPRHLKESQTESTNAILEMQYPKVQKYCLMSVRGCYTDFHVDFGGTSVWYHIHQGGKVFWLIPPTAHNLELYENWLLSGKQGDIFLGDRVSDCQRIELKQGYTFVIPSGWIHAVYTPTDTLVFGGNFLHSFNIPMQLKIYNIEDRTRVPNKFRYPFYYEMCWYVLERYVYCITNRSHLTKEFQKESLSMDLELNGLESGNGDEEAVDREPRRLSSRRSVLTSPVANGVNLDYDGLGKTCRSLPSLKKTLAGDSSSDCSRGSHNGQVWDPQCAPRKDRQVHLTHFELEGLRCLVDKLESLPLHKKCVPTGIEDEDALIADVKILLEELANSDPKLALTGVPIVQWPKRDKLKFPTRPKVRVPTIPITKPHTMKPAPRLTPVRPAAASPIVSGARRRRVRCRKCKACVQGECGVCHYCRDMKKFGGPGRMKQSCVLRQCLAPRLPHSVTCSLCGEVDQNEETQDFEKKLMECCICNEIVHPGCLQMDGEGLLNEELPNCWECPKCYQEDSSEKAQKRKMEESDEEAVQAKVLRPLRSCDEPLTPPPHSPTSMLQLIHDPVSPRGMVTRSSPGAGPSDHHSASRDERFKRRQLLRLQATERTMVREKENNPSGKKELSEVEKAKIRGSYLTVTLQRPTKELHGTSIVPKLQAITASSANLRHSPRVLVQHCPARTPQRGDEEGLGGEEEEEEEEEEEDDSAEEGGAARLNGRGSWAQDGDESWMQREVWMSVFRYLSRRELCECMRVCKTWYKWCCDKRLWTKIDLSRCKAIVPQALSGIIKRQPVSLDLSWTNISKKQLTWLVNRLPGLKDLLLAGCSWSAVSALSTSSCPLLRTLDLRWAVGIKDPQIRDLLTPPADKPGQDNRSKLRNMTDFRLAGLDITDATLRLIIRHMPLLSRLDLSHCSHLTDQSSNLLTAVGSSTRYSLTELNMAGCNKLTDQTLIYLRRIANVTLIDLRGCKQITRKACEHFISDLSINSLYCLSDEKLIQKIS
pIC50: −log10 of the molar value.
experimental_endpoint: pIC50

a = CCCCCCCCCC(=O)N(O)CCC(=O)O
b = CN(C)CCCCCCCCC(=O)N(O)CCC(=O)O
// pick min by pIC50: a , b State the label of the item chosen. a
(a: 5.02, b: 6.70)

###

biological target: Lysine-specific demethylase 5A (Homo sapiens)
Sequence (P29375 whole entry): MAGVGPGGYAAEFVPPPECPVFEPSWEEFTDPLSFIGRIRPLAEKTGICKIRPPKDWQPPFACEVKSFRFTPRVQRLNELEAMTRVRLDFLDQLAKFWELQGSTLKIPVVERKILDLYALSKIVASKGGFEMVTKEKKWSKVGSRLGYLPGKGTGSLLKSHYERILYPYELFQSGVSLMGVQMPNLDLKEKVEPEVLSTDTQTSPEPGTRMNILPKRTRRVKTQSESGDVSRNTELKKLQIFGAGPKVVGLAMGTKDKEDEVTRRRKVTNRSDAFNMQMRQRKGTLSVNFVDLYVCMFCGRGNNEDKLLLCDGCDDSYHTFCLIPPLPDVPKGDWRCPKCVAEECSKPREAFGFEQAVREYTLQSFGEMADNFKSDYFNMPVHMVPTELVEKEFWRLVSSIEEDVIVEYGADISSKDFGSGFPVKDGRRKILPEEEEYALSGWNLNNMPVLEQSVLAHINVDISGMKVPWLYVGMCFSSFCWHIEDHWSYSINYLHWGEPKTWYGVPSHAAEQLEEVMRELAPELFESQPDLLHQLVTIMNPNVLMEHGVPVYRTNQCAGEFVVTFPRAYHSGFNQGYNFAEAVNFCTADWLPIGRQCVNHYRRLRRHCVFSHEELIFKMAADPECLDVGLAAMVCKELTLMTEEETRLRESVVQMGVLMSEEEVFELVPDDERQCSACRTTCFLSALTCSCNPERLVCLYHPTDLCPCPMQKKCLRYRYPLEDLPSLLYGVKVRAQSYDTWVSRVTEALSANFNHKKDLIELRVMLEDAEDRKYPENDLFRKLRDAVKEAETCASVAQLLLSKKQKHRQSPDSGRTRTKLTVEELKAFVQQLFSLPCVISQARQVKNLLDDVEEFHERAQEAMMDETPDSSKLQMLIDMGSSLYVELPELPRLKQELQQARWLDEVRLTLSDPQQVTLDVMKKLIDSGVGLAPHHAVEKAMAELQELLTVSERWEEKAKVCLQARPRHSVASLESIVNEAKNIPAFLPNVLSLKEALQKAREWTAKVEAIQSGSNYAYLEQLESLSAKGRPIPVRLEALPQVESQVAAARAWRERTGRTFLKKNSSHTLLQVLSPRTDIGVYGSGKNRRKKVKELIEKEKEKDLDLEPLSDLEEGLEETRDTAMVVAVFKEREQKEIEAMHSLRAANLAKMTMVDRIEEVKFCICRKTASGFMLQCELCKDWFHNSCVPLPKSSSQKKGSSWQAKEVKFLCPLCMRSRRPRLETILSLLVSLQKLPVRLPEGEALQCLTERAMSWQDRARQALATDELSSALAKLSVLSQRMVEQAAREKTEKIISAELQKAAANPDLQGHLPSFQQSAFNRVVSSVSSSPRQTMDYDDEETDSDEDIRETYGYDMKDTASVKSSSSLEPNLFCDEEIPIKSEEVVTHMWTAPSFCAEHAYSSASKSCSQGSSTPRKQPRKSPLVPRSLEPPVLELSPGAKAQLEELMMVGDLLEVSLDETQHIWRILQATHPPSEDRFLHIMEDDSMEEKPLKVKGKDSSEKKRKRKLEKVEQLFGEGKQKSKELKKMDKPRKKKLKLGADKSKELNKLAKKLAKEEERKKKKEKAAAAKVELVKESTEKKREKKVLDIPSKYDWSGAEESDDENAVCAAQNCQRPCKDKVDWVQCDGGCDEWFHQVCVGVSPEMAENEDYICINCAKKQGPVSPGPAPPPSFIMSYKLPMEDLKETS
pIC50: −log10 of the molar value.
experimental_endpoint: pIC50

# smiles_representation, pIC50
measured = [
    ("O=C(O)CCN(O)C(=O)CCCCCCCCC1CCCCC1", 4.00),
    ("O=C(O)CCN(O)C(=O)CCCCCCCCC1CCCCCC1", 4.26),
    ("CCCCCCCCCC(=O)N(O)CCC(=O)O", 4.19),
]

Values were extracted from ChEMBL document CHEMBL2424657.
